These entries and their values trace back to patent US20070270418A1.

IC50 by entry:
# Subject of test: p38α (Homo sapiens, UniProt Q16539)
# Construct: p38 MAP Kinases are recombinant human full-length proteins with an amino-terminal GST fusion; GST (N)
# Sequence (Q16539 whole entry, the tested form may be a part): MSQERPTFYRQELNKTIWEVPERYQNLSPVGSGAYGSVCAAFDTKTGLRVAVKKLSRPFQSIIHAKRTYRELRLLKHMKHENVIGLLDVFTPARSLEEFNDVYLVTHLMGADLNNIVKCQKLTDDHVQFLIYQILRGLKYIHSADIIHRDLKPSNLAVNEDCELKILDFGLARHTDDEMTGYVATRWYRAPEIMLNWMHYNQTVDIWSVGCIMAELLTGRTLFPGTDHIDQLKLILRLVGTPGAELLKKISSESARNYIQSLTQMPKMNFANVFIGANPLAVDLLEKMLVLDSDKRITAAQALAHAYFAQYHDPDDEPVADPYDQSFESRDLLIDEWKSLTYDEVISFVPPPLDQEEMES
# Measurement description: p38 MAP Kinase assay, ATF2 phosphorylation (ELISA)
# Measurement setup: 40 μM ATP
Your answer should be a plain number; it is taken to be in nM.

Answered cases to consult:
Sample CC(C)(C)OC(=O)N1CCC(Nc2nccc(-c3c(-c4cccc(C(F)(F)F)c4)nc4occn34)n2)CC1 — what was its IC50?
18

Sample NC1CCN(c2nccc(-c3c(-c4ccc(F)cc4)nc4occn34)n2)CC1 — what was its IC50?
866

---
Sample CCNc1nccc(-c2c(-c3ccc(F)cc3)nc3occn23)n1 — what was its IC50?
3.42

Sample C[C@@H](CO)CCNc1nccc(-c2c(-c3ccc(F)cc3)nc3occn23)n1 — what was its IC50?
31.4

Sample CC(C)(C)OC(=O)N1CCCCC1CNc1nccc(-c2c(-c3ccc(F)cc3)nc3sccn23)n1 (stereo not drawn) — what was its IC50?
107

Sample Fc1ccc(-c2nc3occn3c2-c2ccnc(NCC3CCCNC3)n2)cc1 (stereo not drawn) — what was its IC50?
39.9

Sample CS(=O)(=O)c1nccc(-c2c(-c3ccc(F)cc3)nc3occn23)n1 — what was its IC50?
4430

Sample CC(O)CNc1nccc(-c2c(-c3ccc(F)cc3)nc3occn23)n1 (stereo not drawn) [XV] — what was its IC50?
30.7

Sample Fc1ccc(-c2nc3occn3c2-c2ccnc(NC3CC3)n2)cc1 — what was its IC50?
0.44

###

log10(IC50) by entry:
# Subject of test: p38α (Homo sapiens, UniProt Q16539)
# Construct: p38 MAP Kinases are recombinant human full-length proteins with an amino-terminal GST fusion; GST (N); purchased Upstate (Charlottesville, Va.); host or cells: E. coli
# Measurement description: p38 MAP Kinase assay, ATF2 phosphorylation (ELISA)
# Assay type: biochemical
# Measurement setup: 40 μM ATP
Heads up: the numbers are on a log10 scale; they represent IC50 in nM.

Answered cases to consult:
Sample CCOC(=O)Cc1csc2nc(-c3ccc(F)cc3)c(-c3ccnc(N4CCCCC4)n3)n12 — what was its log10(IC50)?
3.00

Sample CC(C)(C)OC(=O)CNc1nccc(-c2c(-c3ccc(F)cc3)nc3sccn23)n1 — what was its log10(IC50)?
1.77

Sample CC(C)Nc1nccc(-c2c(-c3ccc(F)cc3)nc3occn23)n1 — what was its log10(IC50)?
-0.05

Sample CC(O)CNc1nccc(-c2c(-c3ccc(F)cc3)nc3occn23)n1 (centres unmarked) [XVI] — what was its log10(IC50)?
1.57

---
Sample Cc1ccc(-c2nc3sccn3c2-c2ccnc(N[C@H](CO)C(C)C)n2)cc1 [CCXI] — what was its log10(IC50)?
2.17

###

# Subject of test: p38α (Homo sapiens, UniProt Q16539)
# Construct: p38 MAP Kinases are recombinant human full-length proteins with an amino-terminal GST fusion; GST (N)
# Measurement description: p38 MAP Kinase assay, ATF2 phosphorylation (ELISA)
# Measurement setup: 40 μM ATP
# Description: Compounds of the invention are screened for the ability to inhibit ATF2 phosphorylation by p38 MAP Kinase in vitro. […]
Readout kind: IC50 (nM)
Your answer should be a plain number; it is taken to be in nM.

Request - read-out IC50 | tested on p38α (Homo sapiens, UniProt Q16539) | compound Clc1ccccc1-c1nc2occn2c1-c1ccnc(N[C@H]2CN3CCC2CC3)n1
12.5
